Each entry below carries its reported viability, T/C.
system: 885724-159-R-J1-PDC complex spheroid viability; test: Anticancer human tumor 885724-159-R-J1-PDC patient-derived pancreatic adenocarcinoma cell line growth inhibition [POLQ]; details: second compound 0.1 µM; first compound 10 µM; stronger effect = lower value
reportedEndpoint: viability, T/C (%)

INSERT INTO measurements (compound, studytarget, measvalue) VALUES
  ('O=C(Nc1ccc(O)c(NS(=O)(=O)c2ccc(F)cc2)c1)c1ccc(-c2ccccc2)cc1 + Nc1ccc(C#CCN(C(=O)Cc2ncc(C(F)(F)F)cc2C(F)(F)F)c2ccc(F)cc2)nn1', '885724-159-R-J1-PDC complex spheroid viability', 96.4),
  ('COc1ccc([C@@H](O)c2cc(-c3ncnc4cc(N5CCOCC5)ccc34)c(F)cc2Cl)nn1 + Cc1cccc(N(C)C(=O)C2C(O)CCN2c2nc(C)cc(C(F)(F)F)c2C#N)c1', '885724-159-R-J1-PDC complex spheroid viability', 35.2),
  ('CCc1cc2c(N3CCc4c(cc(Cn5ccnc5)cc4-c4cn(C)nc4C(F)(F)F)C3=O)ccnc2c(OC)n1 + Nc1ccc(C#CCN(C(=O)Cc2ncc(C(F)(F)F)cc2C(F)(F)F)c2ccc(F)cc2)nn1', '885724-159-R-J1-PDC complex spheroid viability', 67.6),
  ('CC(C)n1c(=O)n(C)c2cnc3cc(F)c(-c4ccc(OCCCN5CCCCC5)nc4)cc3c21 + Nc1ccc(C#CCN(C(=O)Cc2ncc(C(F)(F)F)cc2C(F)(F)F)c2ccc(F)cc2)nn1', '885724-159-R-J1-PDC complex spheroid viability', 93.7),
  ('COc1cc2cc(C(=O)CCC(=O)O)sc2cc1OC + COC1C(OC(N)=O)C(O)C(Oc2ccc3c(O)c(NC(=O)c4ccc(O)c(CC=C(C)C)c4)c(=O)oc3c2C)OC1(C)C', '885724-159-R-J1-PDC complex spheroid viability', 86.6),
  ('COc1cc(C2c3cc4c(cc3C(OC3OC5COC(C)OC5C(O)C3O)C3COC(=O)C23)OCO4)cc(OC)c1O (stereo not drawn) + Nc1ccc(C#CCN(C(=O)Cc2ncc(C(F)(F)F)cc2C(F)(F)F)c2ccc(F)cc2)nn1', '885724-159-R-J1-PDC complex spheroid viability', 53.2),
  ('CCCS(=O)(=O)Nc1ccc(F)c(C(=O)c2c[nH]c3ncc(-c4ccc(Cl)cc4)cc23)c1F + Cc1cccc(N(C)C(=O)C2C(O)CCN2c2nc(C)cc(C(F)(F)F)c2C#N)c1', '885724-159-R-J1-PDC complex spheroid viability', 99.4),
  ('COc1cc(C2c3cc4c(cc3C(OC3OC5COC(C)OC5C(O)C3O)C3COC(=O)C23)OCO4)cc(OC)c1O (stereo not drawn) + Cc1cccc(N(C)C(=O)C2C(O)CCN2c2nc(C)cc(C(F)(F)F)c2C#N)c1', '885724-159-R-J1-PDC complex spheroid viability', 47.5);

---

tested on: 885724-159-R-J1-PDC complex spheroid viability; test: Anticancer human tumor 885724-159-R-J1-PDC cell line growth inhibition [POLQ]; details: second compound 0.316 µM; first compound 10 µM; stronger effect = lower value;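 note: spheroids exposed to compounds for 7 days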
Reported viability, T/C maps to class as: category 1 (below 40%), category 2 (40% to below 80%), category 3 (80% or more)

INSERT INTO measurements (compound, classassignment) VALUES
  ('CC1COCCN1c1cc(C2(S(C)(=N)=O)CC2)nc(-c2ccnc3[nH]ccc23)n1 (stereo not given) + COC1C(OC(N)=O)C(O)C(Oc2ccc3c(O)c(NC(=O)c4ccc(O)c(CC=C(C)C)c4)c(=O)oc3c2C)OC1(C)C', 'category 2'),
  ('O=C(c1cc(Cc2n[nH]c(=O)c3ccccc23)ccc1F)N1CCN(C(=O)C2CC2)CC1 + COC1C(OC(N)=O)C(O)C(Oc2ccc3c(O)c(NC(=O)c4ccc(O)c(CC=C(C)C)c4)c(=O)oc3c2C)OC1(C)C', 'category 2'),
  ('CCc1cc2c(N3CCc4c(cc(Cn5ccnc5)cc4-c4cn(C)nc4C(F)(F)F)C3=O)ccnc2c(OC)n1 + COC1C(OC(N)=O)C(O)C(Oc2ccc3c(O)c(NC(=O)c4ccc(O)c(CC=C(C)C)c4)c(=O)oc3c2C)OC1(C)C', 'category 2'),
  ('COc1ccc([C@@H](O)c2cc(-c3ncnc4cc(N5CCOCC5)ccc34)c(F)cc2Cl)nn1 + Cc1cccc(N(C)C(=O)C2C(O)CCN2c2nc(C)cc(C(F)(F)F)c2C#N)c1', 'category 1'),
  ('O=c1[nH]cc(F)c(=O)[nH]1 + Cc1cccc(N(C)C(=O)C2C(O)CCN2c2nc(C)cc(C(F)(F)F)c2C#N)c1', 'category 2'),
  ('CCCS(=O)(=O)Nc1ccc(F)c(C(=O)c2c[nH]c3ncc(-c4ccc(Cl)cc4)cc23)c1F + Nc1ccc(C#CCN(C(=O)Cc2ncc(C(F)(F)F)cc2C(F)(F)F)c2ccc(F)cc2)nn1', 'category 3'),
  ('COc1cccc2c1C(=O)c1c(O)c3c(c(O)c1C2=O)CC(O)(C(=O)CO)CC3OC1CC(N)C(O)C(C)O1 (stereo not given) + Nc1ccc(C#CCN(C(=O)Cc2ncc(C(F)(F)F)cc2C(F)(F)F)c2ccc(F)cc2)nn1', 'category 1'),
  ('C=CC(=O)N1CCN(c2nc(=O)n(-c3c(C)ccnc3C(C)C)c3nc(-c4c(O)cccc4F)c(F)cc23)C(C)C1 (stereo not given) + COC1C(OC(N)=O)C(O)C(Oc2ccc3c(O)c(NC(=O)c4ccc(O)c(CC=C(C)C)c4)c(=O)oc3c2C)OC1(C)C', 'category 3'),
  ('O=C(Nc1ccc(O)c(NS(=O)(=O)c2ccc(F)cc2)c1)c1ccc(-c2ccccc2)cc1 + COC1C(OC(N)=O)C(O)C(Oc2ccc3c(O)c(NC(=O)c4ccc(O)c(CC=C(C)C)c4)c(=O)oc3c2C)OC1(C)C', 'category 3'),
  ('COc1cccc2c1C(=O)c1c(O)c3c(c(O)c1C2=O)CC(O)(C(=O)CO)CC3OC1CC(N)C(O)C(C)O1 (stereo not given) + Cc1cccc(N(C)C(=O)C2C(O)CCN2c2nc(C)cc(C(F)(F)F)c2C#N)c1', 'category 1');
